# Test system: NIH3T3
# PROTOCOL TEXT: Cytotoxicity against serum stimulated mouse NIH3T3 cells assessed as inhibition of cell growth incubated for 72 hrs by MTT assay
# Type: functional, cell-based
# CONDITION NOTES: NIH3T3, 72 h

{"columns": ["SMILES ENTRY", "IC50, µM"],
 "data": [
  ["COc1ccc(S(=O)(=O)N(CCO)c2ccccc2CN(C)C/C=C/c2ccc(Cl)cc2)cc1", 12]
]}
